Tested on: MRSA COL (NRS100)
EXPERIMENT: MIC, broth micro-dilution technique (CLSI)
Format: cell-based, Staphylococcus aureus
MEASUREMENT CONTEXT: Staphylococcus aureus, 22 h, read-out: MIC (μg/mL) (COL)
PROPERTY: MIC (µg/mL)
State the answer as a number, implicitly in µg/mL.

CCCCc1ccc(-c2cccc(C(=O)N[C@@H](CCCCN)C(=O)N(C)[C@@H]3C(=O)N[C@@H](C)C(=O)N[C@H](C(=O)O)Cc4ccc(OCCN)c(c4)-c4cc3ccc4OCCN)c2)cc1    0.25

Alright, here's another molecule for you.
// recorded MIC for CCCCCCCCCCNCCC(=O)N[C@@H](CCCCN)C(=O)N(C)[C@@H]1C(=O)N[C@@H](C)C(=O)N[C@H](C(=O)N[C@@H](C)C(C)=O)Cc2ccc(O)c(c2)-c2cc1ccc2OC1O[C@H](CO)[C@@H](O)[C@H](O)[C@H]1N (some centres unmarked) : 1

###

Tested on: Escherichia coli MC4100 harboring the IMP4213
EXPERIMENT: MIC, broth micro-dilution technique (CLSI)
Format: cell-based
MEASUREMENT CONTEXT: Table 2 modified protocol: serial 2-fold dilutions starting from 4 μg/mL; 35° C., 22 hours
PROPERTY: MIC (μg/mL) E. coli

// recorded MIC (μg/mL) E. coli for CCCCCCCCCC(=O)N[C@@H](CC[S+](C)[O-])C(=O)N(C)[C@@H]1C(=O)N[C@@H](C)C(=O)N[C@H](C(=O)N[C@@H](C)C(C)=O)Cc2ccc(OCCN)c(c2)-c2cc1ccc2OCCN (stereo partly drawn) : >4 µg/mL

// recorded MIC (μg/mL) E. coli for CCCCCCCCCC(=O)N[C@@H](CO)C(=O)N(C)[C@@H]1C(=O)N[C@@H](C)C(=O)N[C@H](C(=O)N[C@@H](C)C(C)=O)Cc2ccc(OCCN)c(c2)-c2cc1ccc2OCCN.O=CO : >4 µg/mL

// recorded MIC (μg/mL) E. coli for CCCCCCCCCCS(=O)(=O)N[C@@H](CCCCN)C(=O)N(C)[C@@H]1C(=O)N[C@@H](C)C(=O)N[C@H](C(=O)N[C@@H](C)C(=O)c2nnn[nH]2)Cc2ccc(OCCN)c(c2)-c2cc1ccc2OCCN.O=CO : 4 µg/mL

###

System: Methicillin Resistant Staphylococcus aureus strain USA 300 (NRS384)
EXPERIMENT: MIC, broth micro-dilution technique (CLSI)
Type: cell-based
MEASUREMENT CONTEXT: Staphylococcus aureus, 22 h, read-out: MIC (μg/mL) S. aureus
Catalogue of MIC values
State the answer as a number, implicitly in µg/mL.

Assay Methicillin Resistant Staphylococcus aureus strain USA 300 (NRS384), sample CCCCCCCCCCNCCC(=O)N[C@@H](CCCCN)C(=O)N(C)[C@@H]1C(=O)N[C@@H](C)C(=O)N[C@H](C(=O)N[C@@H](C)C(C)=O)Cc2ccc(O)c(c2)-c2cc1ccc2OCCN , MIC read: 0.63

Assay Methicillin Resistant Staphylococcus aureus strain USA 300 (NRS384), sample CCCCCCCCCCNCCS(=O)(=O)N[C@@H](CCCN)C(=O)N(C)[C@@H]1C(=O)N[C@@H](C)C(=O)N[C@H](C(=O)N[C@@H](C)C(C)=O)Cc2ccc(O)c(c2)-c2cc1ccc2O , MIC read: 0.35

Assay Methicillin Resistant Staphylococcus aureus strain USA 300 (NRS384), sample CCCCc1ccc(-c2ccc(C(=O)NC[C@@H](C)C(=O)N[C@@H](CCCCN)C(=O)N(C)[C@@H]3C(=O)N[C@@H](C)C(=O)N[C@H](C(=O)N[C@@H](C)C(=O)N4CCC[C@H]4C(N)=O)Cc4ccc(O)c(c4)-c4cc3ccc4OC(=O)OCC(C)C)cc2)cc1 , MIC read: 2

###

System: MRSA COL (NRS100)
EXPERIMENT: MIC, broth micro-dilution technique (CLSI)
Assay type: cell-based, Staphylococcus aureus
MEASUREMENT CONTEXT: Staphylococcus aureus, 22 h, read-out: MIC (μg/mL) (COL)
PROPERTY: MIC (µg/mL)
State the answer as a number, implicitly in µg/mL.

CCCCCCCCCCCCCC(=O)N[C@@H](CCCCN)C(=O)N(C)[C@@H]1C(=O)N[C@@H](C)C(=O)N[C@H](C(=O)O)Cc2ccc(OCCN)c(c2)-c2cc1ccc2OCCN    0.063

// recorded MIC for CCCCCCCCCCCCCC(=O)N[C@@H](CN)C(=O)N(C)[C@@H]1C(=O)N[C@@H](C)C(=O)N[C@H](C(=O)O)Cc2ccc(OCCN)c(c2)-c2cc1ccc2OCCN : 0.063

###

Tested on: Methicillin Resistant Staphylococcus aureus strain USA 300 (NRS384)
EXPERIMENT: MIC, broth micro-dilution technique (CLSI)
Type: cell-based
MEASUREMENT CONTEXT: Table 1 protocol: serial 2-fold dilutions starting from 64 μg/ml; 35° C., 22 hours
Catalogue of MIC (μg/mL) S. aureus values
# include the unit after the value

Example compounds with recorded MIC (μg/mL) S. aureus:
CCCCCCCC(=O)NCCC(=O)N[C@@H](CCCCN)C(=O)N(C)[C@@H]1C(=O)N[C@@H](C)C(=O)N[C@H](C(=O)N[C@@H](C)C(=O)C2CO2)Cc2ccc(O)c(c2)-c2cc1ccc2O (stereo partly shown)    64 µg/mL
C[C@@H]1NC(=O)[C@@H](N(C)C(=O)[C@H](CCCCN)NC(=O)c2ccc(-c3ccc(Cl)cc3)cc2)c2ccc(O)c(c2)-c2cc(ccc2O)C[C@@H](C(=O)N[C@@H](C)C(=O)N2CCCC23CCNC3=O)NC1=O (stereo partly shown)    64 µg/mL
CCCCCCCCCCNCCC(=O)N[C@@H](CCCCN)C(=O)N(C)[C@@H]1C(=O)N[C@@H](C)C(=O)N[C@H](C(=O)N[C@@H](C)C(=O)N2CCC[C@H]2C(N)=O)Cc2ccc(O)c(c2)-c2cc1ccc2O.O=CO    2.8 µg/mL

// recorded MIC (μg/mL) S. aureus for CCCCCCCCCCCCCC(=O)NC(CCCCN)C(=O)N(C)C1C(=O)NC(C)C(=O)NC(C(=O)NC(C)B2OC3CC4CC(C4(C)C)C3(C)O2)Cc2ccc(OCCN)c(c2)-c2cc1ccc2OCCN (stereo not shown) : 0.063 µg/mL

###

System: Methicillin Resistant Staphylococcus aureus strain USA 300 (NRS384)
EXPERIMENT: MIC, broth micro-dilution technique (CLSI)
Type: cell-based
MEASUREMENT CONTEXT: Staphylococcus aureus, 22 h, read-out: MIC (μg/mL) S. aureus
PROPERTY: MIC (µg/mL)
State the answer as a number, implicitly in µg/mL.

Assay Methicillin Resistant Staphylococcus aureus strain USA 300 (NRS384), sample CCCCCCCCCCCCCC(=O)N[C@@H](CCCN)C(=O)N(C)[C@@H]1C(=O)N[C@@H](C)C(=O)N[C@H](C(=O)O)Cc2ccc(OCCN)c(c2)-c2cc1ccc2OCCN , MIC read: 0.13

Assay Methicillin Resistant Staphylococcus aureus strain USA 300 (NRS384), sample C[C@@H]1NC(=O)[C@@H](N(C)C(=O)[C@H](CCCCN)NC(=O)c2ccc(-c3ccc(Cl)cc3)cc2)c2ccc(OCCN)c(c2)-c2cc(ccc2OCCN)C[C@@H](C(=O)O)NC1=O , MIC read: 2

Assay Methicillin Resistant Staphylococcus aureus strain USA 300 (NRS384), sample COP(=O)(O)CC(=O)[C@H](C)NC(=O)[C@@H]1Cc2ccc(O)c(c2)-c2cc(ccc2O)[C@H](N(C)C(=O)[C@H](CCCCN)NC(=O)c2ccc(-c3ccc(Cl)cc3)cc2)C(=O)N[C@@H](C)C(=O)N1 , MIC read: 16

###

System: MRSA COL (NRS100)
EXPERIMENT: MIC, broth micro-dilution technique (CLSI)
Type: cell-based, Staphylococcus aureus
MEASUREMENT CONTEXT: Staphylococcus aureus, 22 h, read-out: MIC (μg/mL) (COL)
PROPERTY: MIC (µg/mL)
State the answer as a number, implicitly in µg/mL.

CCCCCCCCc1ccc(C(=O)N[C@@H](CO)C(=O)N(C)[C@@H]2C(=O)N[C@@H](C)C(=O)N[C@H](C(=O)O)Cc3ccc(OCCN)c(c3)-c3cc2ccc3OCCN)c(C)c1    0.25

Assay MRSA COL (NRS100), sample CCCCc1ccc(-c2ccc(C(=O)N[C@@H](CCCN)C(=O)N(C)[C@@H]3C(=O)N[C@@H](C)C(=O)N[C@H](C(N)=O)Cc4ccc(OCCN)c(c4)-c4cc3ccc4OCCN)cc2)cc1 , MIC read: 0.063

Assay MRSA COL (NRS100), sample COC(=O)/C=C/[C@H](C)NC(=O)[C@@H]1Cc2ccc(O)c(c2)-c2cc(ccc2O)[C@H](N(C)C(=O)[C@H](CCCCN)NC(=O)c2ccc(-c3ccc(Cl)cc3)cc2)C(=O)N[C@@H](C)C(=O)N1 , MIC read: 16
